target: Dar-1 split aptamer; test: Split aptamer SAH assay with TR-FRET readout (AptaFluor), equilibrium binding; conditions: n = 3, plates read at 3 hr
Parameter measured: EC50 (µM)
Give your result in µM as a bare value.

Examples with answers:
Compound	Subject of test	EC50 / µM
Nc1ncnc2c1ncn2[C@@H]1O[C@H](CSCC[C@H](N)C(=O)O)[C@@H](O)[C@H]1O [SAH, S-adenosylhomocysteine]	Dar-1 split aptamer	0.02
C[S+](CC[C@H](N)C(=O)[O-])C[C@H]1O[C@@H](n2cnc3c(N)ncnc32)[C@H](O)[C@@H]1O (stereo partly drawn) [SAM, S-adenosylmethionine]	Dar-1 split aptamer	23

Proceed to the following item.
Recorded EC50 for Nc1ncnc2c1ncn2[C@@H]1O[C@H](CO)[C@@H](O)[C@H]1O [adenosine] , please?
108

----------
molecular target: split Dar-1 riboswitch (Dar1 P1/P2); experiment: Split aptamer SAH assay with FP readout; details: split aptamer construct
Parameter measured: pKd
Answer as the number alone; pKd is minus log10 of concentration in mol/L.

Recorded pKd for Nc1ncnc2c1ncn2[C@@H]1O[C@H](CSCC[C@H](N)C(=O)O)[C@@H](O)[C@H]1O , please?
7.66

Sourced from paper PMC11188199
